# growth values compiled below
test system: HCT-15 colon; assay: NCI-60 one-dose screen, 48 h (100 = growth as untreated, 0 = no growth, -100 = all killed); settings: 10 µM unless noted
Compounds without any hit were thinned out: in the full panel of roughly 83,000, 20% have a hit. Activity calls are given as the source filed them. Rule for the calls: active = growth percent below 10; inactive = the rest.

Known results for molecules:
COc1ccc(-c2nc(N3CCN(C(=O)C4CCCCC4)CC3)c3c4c(sc3n2)CCCC4)cc1 ... 49.2% (inactive)
CC(C)Cn1c2c(c(=S)[nH]c1=O)CCC2 ... 105% (inactive)
CNCCNc1nc2ccccc2c2c(=O)c3cccc(C)c3sc12 ... -21.3% (active)
Nc1ccc(-c2nn3c(CCC(=O)c4nc5ncccc5[nH]4)nnc3s2)c(O)c1 ... 95.8% (inactive)
CN1C(=O)N(C)C2(c3ccccc3)OC(=S)NC12c1ccccc1 (configuration not stated) ... 100% (inactive)
CSc1nc2c(c(=O)[nH]1)N=C1c3ccccc3C(=O)C1C(c1ccc(F)cc1)N2 (configuration not stated) ... 46.1% (inactive)

Now examine the next entry.
-- ask Which value of growth has been reported for Nc1nc(-c2cnccn2)nn1-c1nc2ccccc2s1 in the records?
-- reply 103% (inactive)
